tested on: SEM cells; assay: cell viability relative to DMSO control; higher = less cytotoxic; details: RPMI 5 mM glucose + 10% FBS; 48 h; 1.71 µM
Consider the following compounds; for each one, report its cell viability.
State just the number; it will be interpreted in %.

q: Provide measured cell viability value, entry: `CC1=C(/C=C/C(C)=C/C=C/C(C)=C/C(=O)Nc2ccc(O)cc2)C(C)(C)CCC1`
a: 65

q: Provide measured cell viability value, entry: `CC1=CC2=C(O1)C(=C3OC(=O)\C=C(C)/C3=C2)C`
a: 103

q: Provide measured cell viability value, entry: Cc1c(OCC(F)(F)F)ccnc1C[S+]([O-])c1nc2ccccc2[nH]1 (stereo not given)
a: 124

q: Provide measured cell viability value, entry: `CC1=C(C)C2=C(S1)[N]3C(=NN=C3[C@H](CC(=O)OC(C)(C)C)/N=C2/C4=CC=C(Cl)C=C4)C`
a: 18.7

q: Provide measured cell viability value, entry: COc1ccc(-c2nc3cc(C4=NNC(=O)CC4C)ccc3[nH]2)cc1 (stereo not given)
a: 120

q: Provide measured cell viability value, entry: CCOP(=O)(OCC)C(C)NC(=O)N(CCCl)N=O (stereo not given)
a: 95.5

q: Provide measured cell viability value, entry: `O=C(c1ccc(F)cc1)C1CCN(CCn2c(=O)[nH]c3ccccc3c2=O)CC1`
a: 119

q: Provide measured cell viability value, entry: Cn1c(=O)c2c(ncn2CC(O)CO)n(C)c1=O (stereo not given)
a: 111

q: Provide measured cell viability value, entry: `CN(C)c1ccc(C(=O)NCCCCCCC(=O)NO)cc1`
a: 37.3

q: Provide measured cell viability value, entry: `CC(C)[C@H](CO)Nc1nc(Nc2ccc(C(=O)O)c(Cl)c2)c2ncn(C(C)C)c2n1`
a: 83.2

----------
system: NOMO1; experiment: cell viability relative to DMSO control; higher = less cytotoxic; conditions: HPLM + 10% dialyzed FBS; 48 h; 1.71 µM
propertyName: cell viability (%)
State just the number; it will be interpreted in %.

q: Provide measured cell viability value, entry: `C=C1C[C@@]2(O)O[C@@]3(C[C@H]2C(C)C)[C@@H](C)CC[C@@H]13`
a: 117

q: Provide measured cell viability value, entry: `CCCCCCCCCCCCCCCC(=O)OC[C@@H](NC(=O)C(Cl)Cl)[C@H](O)c1ccc([N+](=O)[O-])cc1`
a: 144

q: Provide measured cell viability value, entry: Clc1ccc(COC(Cn2ccnc2)c2ccc(Cl)cc2Cl)cc1 (configuration not stated)
a: 127

q: Provide measured cell viability value, entry: `c1cc(OCCN2CCCCC2)cc(-c2n[nH]c3ccc(-c4nc[nH]n4)cc23)c1`
a: 127

q: Provide measured cell viability value, entry: CC1(C)CC(=O)c2c(C(F)(F)F)nn(-c3ccc(C(N)=O)c(NC4CCC(OC(=O)CN)CC4)c3)c2C1 (configuration not stated)
a: 17.8

q: Provide measured cell viability value, entry: COc1ccc2cc(-c3[nH]c(-c4ccc([S+](C)[O-])cc4)nc3-c3ccncc3)ccc2c1 (configuration not stated)
a: 126

q: Provide measured cell viability value, entry: `COc1ccc2cccc(CCNC(C)=O)c2c1`
a: 104

q: Provide measured cell viability value, entry: `O=C(Oc1ccc([N+](=O)[O-])cc1)N1CCN(Cc2cccc(Oc3ccccc3)c2)CC1`
a: 126

q: Provide measured cell viability value, entry: `COc1cc2nc(-c3ccc(N4CCN(C)CC4)cc3)nc(NCCN3CCOCC3)c2cc1OC`
a: 35

q: Provide measured cell viability value, entry: C[C@H]1CCC/C=C/C2C[C@H](O)C[C@H]2[C@H](O)/C=C/C(=O)O1 (some centres not stated)
a: 4.43

q: Provide measured cell viability value, entry: `CCCn1c(=O)c2[nH]c(-c3cnn(Cc4cccc(C(F)(F)F)c4)c3)nc2n(CC)c1=O`
a: 82.4

q: Provide measured cell viability value, entry: `CC1=C(/C=C/C(C)=C/C=C/C(C)=C/C(=O)Nc2ccc(O)cc2)C(C)(C)CCC1`
a: 80.6

q: Provide measured cell viability value, entry: CC1OC(OC/2=C(/OC3=C(C(=CC(=C3)O)O)C2=O)C4=CC=C(O)C=C4)C(O)C(OC(C)=O)C1OC(C)=O (configuration not stated)
a: 112

q: Provide measured cell viability value, entry: `Cc1cc(SCc2sc(-c3ccc(C(F)(F)F)c(F)c3)nc2C)ccc1OCC(=O)O`
a: 95.4

q: Provide measured cell viability value, entry: O=P(O)(O)C(O)(Cc1cccnc1)P(=O)(O)[O][Na] (configuration not stated)
a: 116

q: Provide measured cell viability value, entry: CC(=O)SCC(Cc1ccccc1)C(=O)NCC(=O)OCc1ccccc1 (configuration not stated)
a: 88.9

q: Provide measured cell viability value, entry: `C[C@@]12OC(=O)[C@@]1(NC(=O)[C@@H]2CCCl)[C@@H](O)[C@H]\3CCC\C=C3`
a: 6.95

q: Provide measured cell viability value, entry: `CCCCc1oc2ccc(NS(C)(=O)=O)cc2c1C(=O)c1ccc(OCCCN(CCCC)CCCC)cc1`
a: 64.7

q: Provide measured cell viability value, entry: `CC(Oc1ccc(O)cc1)(P(=O)(O)O)P(=O)(O)O`
a: 85.8

q: Provide measured cell viability value, entry: `CNC(=O)c1c(F)cccc1Nc1nc(Nc2cc3c(cc2OC)CCN3C(=O)CN(C)C)nc2[nH]ccc12`
a: 76.5

q: Provide measured cell viability value, entry: `Cn1cc(-c2ccc3ncc(Cc4ccc5ncccc5c4)n3n2)cn1`
a: 120

q: Provide measured cell viability value, entry: `CN(C)c1ccc(C(=O)NCCCCCCC(=O)NO)cc1`
a: 89
